# assay: in vitro
# condition details: human
Readings of CC50 for the listed molecules
parameter: CC50 (µg/mL)

# molecule, modifier, measured
rows = [
    ("Cc1ccc2c(Cl)c(C(=O)NC34C(=O)c5c(N)cccc5C3(O)Oc3cc(C(C)C)ccc34)sc2c1 (centres unmarked)", "=", 5.93),
    ("CC(C)c1ccc2c(c1)OC1(O)c3ccccc3C(=O)C21O (centres unmarked)", "=", 18.4),
    ("COc1cccc(C(=O)NC23C(=O)c4c(N)cccc4C2(O)Oc2cc(C(C)C)ccc23)c1 (centres unmarked)", "=", 22.7),
    ("CC(C)c1ccc2c(c1)OC1(O)c3ccccc3C(=O)C21NC(=O)c1cnnc2ccccc12 (centres unmarked)", ">", 10),
    ("CC(C)c1ccc2c(c1)OC1(O)c3cccc(N)c3C(=O)C21NC(=O)c1cc2ccccc2o1 (centres unmarked)", ">", 10),
    ("CC(C)c1ccc2c(c1)OC1(O)c3cccc(N)c3C(=O)C21NC(=O)c1cnc2ccccc2n1 (centres unmarked)", "=", 4.55),
    ("CC(C)c1ccc2c(c1)OC1(O)c3cccc(N)c3C(=O)C21NS(=O)(=O)C(F)(F)F (centres unmarked)", ">", 10),
    ("CC(C)c1ccc2c(c1)OC1(O)c3cccc(N)c3C(=O)C21NS(C)(=O)=O (centres unmarked)", ">", 10),
]
